runParameters: buffer; pH 7.4; 6.0 h; 150.0 µM
What solubility kinetic was measured for each of the following?

O=C(Nc1ncc(Cc2ccc(C(F)(F)F)cc2)s1)c1ccc(-c2ccc([N+](=O)[O-])cc2)o1
< 1 µg/mL
c1ccc(-c2nc(N3CCCCCC3)c3ccccc3n2)nc1
> 45 µg/mL
COc1cc(-c2csc(N3CCC(C(N)=O)CC3)n2)cc(OC)c1OC
> 56 µg/mL
Cn1c(C(=O)NCCc2ccccn2)nc2nc(-c3ccccc3)c(Cl)cc21
1.11 µg/mL
O=C(O)c1ccnc(-c2cc(C(=O)NCCc3ccccc3)ccn2)c1
> 51 µg/mL
CCCc1cc(C)[nH]c(=O)c1CNC(=O)c1cc(-c2ccnc(N3CCN(C)CC3)c2)cc2c1cnn2C(C)C
64 µg/mL
OC1(CN2CCN(c3ccc(F)c(Cl)c3)CC2)CCCNC1 (stereo not given)
> 48 µg/mL
CC(=O)c1c(C)oc2ccc(N(C(=O)Oc3ccccc3)S(=O)(=O)c3ccccc3)cc12
< 1 µg/mL

Report solubility kinetic for each item below.
1. Cc1ccccc1C(=O)Nc1nc2c(s1)CC(C(C)(C)C)CC2 (stereo not given)
2. Cc1ccc([S+](=O)([O-])n2cc(Cc3ccc(-c4ccccc4)cc3)c3ccccc32)cc1

Result:
["< 1 µg/mL", "< 1 µg/mL"]
